Data provenance is the supplement of paper PMC4862054.

System: MDA-MB-453
measurement description: normalised viability (% of control), CellTiter-Blue; higher = more viable cells (about 100 = DMSO control)
condition notes: incubation time: 72 h
Measured normalised viability by item
Kindly report the value followed by its unit.

The examples below pair each entry with its known result.
Cc1ccc(Nc2nccc(N(C)c3ccc4c(C)n(C)nc4c3)n2)cc1S(N)(=O)=O [Pazopanib] (300 nM): 88.4%
O=C1c2c(O)ccc(O)c2C(=O)c2c(NCCNCCO)ccc(NCCNCCO)c21 [Mitoxantrone] (30 nM): 98%

// normalised viability lookup, compound = c1cc(CN2CCCNCCNCCCNCC2)ccc1CN1CCCNCCNCCCNCC1 [Plerixafor] (75 nM) , result: 93.3%

// normalised viability value for O=C(Nc1c[nH]nc1-c1nc2ccc(CN3CCOCC3)cc2[nH]1)NC1CC1 [AT9283] (300 nM) : 58.1%

* * *

System: CAL-148
measurement description: normalised response (% of control), CellTox Green; higher = less cell death (100 = DMSO, 0 = benzethonium chloride kill control)
condition notes: incubation time: 72 h
property measured: normalised response (%)
Respond with the bare value in %.

COc1ccc(-c2cc3c(C)nc(N)nc3n([C@H]3CC[C@H](OCCO)CC3)c2=O)cn1 (100 nM): 80.1
O=C(NC[C@H](O)CO)c1ccncc1Nc1ccc(I)cc1F [Pimasertib] (100 nM): 107
CS(=O)(=O)N1CCN(Cc2cc3nc(-c4cccc5[nH]ncc45)nc(N4CCOCC4)c3s2)CC1 [Pictilisib] (10000 nM): 47.1

Quick note, normalised response for Cc1ccc(Nc2nccc(N(C)c3ccc4c(C)n(C)nc4c3)n2)cc1S(N)(=O)=O [Pazopanib] (1000 nM) landed at 106

Noted for COc1nc(N)nc2c1ncn2[C@@H]1O[C@H](CO)[C@@H](O)[C@@H]1O [Nelarabine] (100 nM) : its normalised response reads 104

// field: normalised response; key: Cc1c(CN2CCN(C(=O)[C@H](C)O)CC2)sc2c(N3CCOCC3)nc(-c3cnc(N)nc3)nc12 [GDC-0980] (1000 nM) ; value = 68.3

normalised response measured on Cc1c(Cn2c(C)nc3c(C(=O)O)cc(N4CCOCC4)cc32)cccc1C(F)(F)F (1000 nM) = 107

Documented normalised response of Cc1c(Cn2c(C)nc3c(C(=O)O)cc(N4CCOCC4)cc32)cccc1C(F)(F)F (10000 nM) : 77.8

Quick note, normalised response for CO[C@@H](C(=O)N1Cc2[nH]nc(NC(=O)c3ccc(N4CCN(C)CC4)cc3)c2C1)c1ccccc1 [Danusertib] (100 nM) landed at 69.4

For this molecule ( Nc1cccc2c1CN(C1CCC(=O)NC1=O)C2=O (configuration not stated) [Lenalidomide] (100 nM) ), measured normalised response is 104

normalised response reading for c1cc(CN2CCCNCCNCCCNCC2)ccc1CN1CCCNCCNCCCNCC1 [Plerixafor] (100 nM) : 94.4

# normalised response of CC/C(=C(\c1ccc(O)cc1)c1ccc(OCCN(C)C)cc1)c1ccccc1 [4-hydroxytamoxifen] (1000 nM) = 57.6

* * *

Tested on: MDA-MB-436
measurement description: normalised response (% of control), CellTiter-Glo; higher = more viable cells (100 = DMSO, 0 = benzethonium chloride kill control)
condition notes: incubation time: 72 h
Documented normalised response across a set of compounds
Answer in %, number only, no unit symbol.

Cc1c(Cn2c(C)nc3c(C(=O)O)cc(N4CCOCC4)cc32)cccc1C(F)(F)F (1000 nM): 99.5

Just so you know, measured normalised response for CO[C@@H](C(=O)N1Cc2[nH]nc(NC(=O)c3ccc(N4CCN(C)CC4)cc3)c2C1)c1ccccc1 [Danusertib] (1 nM) came out at 103

Input CCC/C=C/C=C/C(=O)O[C@H]1/C(=C/C(=O)OC)C[C@H]2C[C@H]([C@@H](C)O)OC(=O)C[C@H](O)C[C@@H]3C[C@H](OC(C)=O)C(C)(C)[C@](O)(C[C@@H]4C/C(=C/C(=O)OC)C[C@H](/C=C/C(C)(C)[C@]1(O)O2)O4)O3 [Bryostatin 1] (0.01 nM) . Output normalised response: 101

Looking up C[C@]12O[C@H](C[C@]1(O)CO)n1c3ccccc3c3c4c(c5c6ccccc6n2c5c31)CNC4=O [Lestaurtinib] (0.1 nM) , I found its normalised response recorded as 94

Measured normalised response, O=S(=O)(c1cccc2cnccc12)N1CCCNCC1 [Fasudil] (5 nM) : 98
